The measurements presented in this section are drawn from the supplement of paper PMC12042874.

test: amyloid nucleation score (Sup35N fusion, yeast selection) (log enrichment); library NNK2; higher = more nucleation; inactive = no reads after selection;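 further: zero at mode of non-aggregating sequences after 7 days selection at 30°C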
Can you tell me amyloid nucleation score for the items I'm about to list?
One number for each entry.

Worked examples, 5 substances total:
>>> reading("DVDEVW")
-1.09
>>> reading("HYVYFGYECAFGGG")
-0.365
>>> reading("TILWEVVGAL")
0.091
>>> reading("LTTSIL")
-1.06
>>> reading("RSMDPCRLLSELIRRT")
0.938

For each of the substances below, note its amyloid nucleation score.
1. DYFSNLIVDLTFLSGSFVFV
2. YQINCLGSYDNLQCMIGGHV
3. SMTVKDSGFMSIFGFSTVRL

Response:
[-0.578, 5.96, -0.854]
